- System: HCT-15
Lab note - cut at 40 µM for GI50: yes (1) if strictly below, no (0) if not.

CC(C)(C)OC(=O)NC(Cc1ccc(OCc2ccccc2)cn1)C(=O)O (configuration not stated) | no (0)
O=C1Nc2ccccc2N/C1=C\C(=O)c1ccccc1O | no (0)
O=c1c2cccc3cccc(c4oc5c6cccc7cccc(c(=O)c5c14)c76)c32 | yes (1)
CC(C)(C)C(=O)N1CCN(C=O)C1=S | no (0)
N=C(N)NS(=O)(=O)c1ccc(NC(=O)c2ccc3nc4ccccc4c(N)c3c2)cc1 | no (0)

Item COc1cccc(-c2cc(C(=O)Nc3ccc(Cl)cc3)nc(N)n2)c1 : GI50 beneath 40 µM, strictly? no (0)

State whether 40 µM exceeds GI50 recorded for CCCCCCCCC(O)C#CC(N)=O (configuration not stated) . yes (1)

Is GI50 strictly under 40 µM for the entry Clc1ccc(CCN2CCOCC2)c(Cl)c1 ? no (0)

* * *

- System: IGROV-1
- Test Name: NCI tumour cell line growth inhibition, 48 h
The source made the active and inactive calls. No stated cut-off is given here; in the data, active = GI50 up to about 1.1 µM and inactive = higher.
Answer with one of the outcomes TRUE (active), FALSE (inactive)

O=C(C(=O)c1cc2ccccc2[nH]1)c1cc2ccccc2[nH]1 | FALSE
O=C1C(Cl)=C(NCCN2CCOCC2)C(=O)c2c(O)ccc(O)c21 | FALSE

Hello, I am checking results. What call was entered for Nc1nc(Cl)c2ncn(Cc3ccccc3CCl)c2n1 ? FALSE

I'd appreciate the recorded outcome for CCCCCC(=O)OCC(=O)[C@H]1[C@H](C)C[C@H]2[C@@H]3C[C@H](F)C4=C/C(=N/OC(=O)c5cccc6c(=O)c7ccccc7[nH]c56)C=C[C@]4(C)[C@H]3[C@@H](O)C[C@@]21C from this test. FALSE

Any idea what this test logged for COC(=O)C#CC1(O)C=CC(=O)C=C1 ? TRUE

* * *

- Tested on: 786-0
- Test Name: NCI tumour cell line growth inhibition, 48 h
The source made the active and inactive calls. Cut-off read from the data, not from the text of the source: active = GI50 up to about 1.1 µM and inactive = higher.
Result Type: GI50

Reference set (5 entries):
CC(=O)Oc1c(C)cc2c(c1C)C(C)CN2C(C)=O (stereo unspecified) | > 100 µM (inactive)
CC(=O)C1C(c2ccccc2)C2(C)OC(=O)C(C#N)C12C (stereo unspecified) | > 100 µM (inactive)
Cc1ncc([N+](=O)[O-])n1CCNS(=O)(=O)CCCn1ncnc1[N+](=O)[O-] | > 100 µM (inactive)
COC(=O)C1=C(OC(=O)c2ccccc2)C(C(=O)OC)[C@]2(O)[C@@H](C(=O)OC)[C@H]1C[C@@H](c1ccccc1)[C@@H]2C(=O)OC (stereo partly specified) | 16.4 µM (inactive)
CC(C)C1CO[C@]2(C)CCC(=O)N12 (stereo partly specified) | > 100 µM (inactive)

I am curious: what GI50 value has been reported for CCOc1cc2c(cc1O)C(N)C[C@@H]1[C@@H]2CC[C@]2(C)[C@@H](O)CC[C@@H]12 (stereo partly specified) ? 40.3 µM (inactive)

* * *

- System: RXF 393
- Test Name: NCI tumour cell line growth inhibition, 48 h
The source made the active and inactive calls. Cut-off read from the data, not from the text of the source: active = GI50 up to about 1.1 µM and inactive = higher.
Result Type: GI50

Observe how each entry below is paired with its result.
Clc1ccc(-n2nnc(C3=NCCCN3)c2-c2ccccc2)cc1 | > 100 µM (inactive)
c1c2c(cc3c1OCO3)-c1cc3ccc4c(c3c[n+]1CC2)OCO4 [COPTISINE CHLORIDE] | 1.99 µM (inactive)
CCOC1CN=C(Nc2cccc3ccccc23)S1 (stereo not given) | > 10 µM (inactive)
COc1ccc(Oc2nc(C#CC(C)(C)O)nc(Oc3ccc(OC)cc3)n2)cc1 | 1.39 µM (inactive)

Quick request: GI50 for each listed item, please.
1. Cc1ccc([Se](=C(C(=O)c2ccccc2)C(=O)c2ccccc2)c2ccc(C)cc2)cc1
2. N#C/C(=C\c1cc(Br)c(O)c(Br)c1)c1cccnc1
3. O=C(C=P(c1ccccc1)(c1ccccc1)c1ccccc1)c1ccc(-c2cccc([N+](=O)[O-])c2)cc1
4. COc1ccc(-c2cc(-c3ccccc3)c(C#N)c(=O)[nH]2)cc1
5. CN(C)Cc1cc(/C=C/C(=O)c2ccc(Cl)c(Cl)c2)cc(CN(C)C)c1O
6. O=c1c2cccc3cccc(c4oc5c6cccc7cccc(c(=O)c5c14)c76)c32

1. 68.1 µM (inactive)
2. 41.3 µM (inactive)
3. 3.06 µM (inactive)
4. > 100 µM (inactive)
5. 11 µM (inactive)
6. 11.2 µM (inactive)

The values you see were collected from ChEMBL document CHEMBL1201862.
